Tested on: HBsAg
Test: PHH natural infection assay, HBsAg (alphalisa)
Type: cell-based, HBV
Settings: Hepatitis B virus, Hepatocyte, 72 h, read-out: HBsAg IC50
experimental-readout: log10 of IC50 (log10 of the value in µM)

molecule	experimental-readout	numeric-result
O=C(Nc1ccc2nn(-c3ccc(Cl)cc3)nc2c1)C1CCCO1 (centres unmarked)	log10 of IC50	0.10
O=C(Nc1ccc2nn(-c3ccc(F)cc3)nc2c1)C1CCCCO1 (centres unmarked)	log10 of IC50	0.80
Clc1ccc(-n2nc3ccc(NCC4CCCC4)cc3n2)cc1	log10 of IC50	0.94
COCCCNc1ccc2nn(-c3ccc(F)cc3)nc2c1	log10 of IC50	0.51
Cc1cc2nn(-c3ccc(Cl)cc3)nc2cc1NC(N)=S	log10 of IC50	0.36
O=C(Nc1ccc2nn(-c3ccc(F)cc3)nc2c1)C1CCOC1 (centres unmarked)	log10 of IC50	0.82
Cc1cc2nn(-c3ccc(Cl)cc3)nc2cc1NC(=S)NC(=O)c1ccccc1	log10 of IC50	0.05
COCCNc1ccc2nn(-c3ccc(S(C)(=O)=O)cc3)nc2c1	log10 of IC50	0.95
Clc1ccc(-n2nc3ccc(NC4CCC4)cc3n2)cc1	log10 of IC50	0.74
CNc1ccc2nn(-c3ccc(Cl)cc3)nc2c1	log10 of IC50	0.26
Clc1ccc(-n2nc3ccc(NCC4CCOC4)cc3n2)cc1 (centres unmarked)	log10 of IC50	0.69
Nc1ccc2nn(-c3ccc(F)cc3)nc2c1	log10 of IC50	0.70
CNC(=S)Nc1ccc2nn(-c3ccc(Cl)cc3)nc2c1	log10 of IC50	0.43
O=C(Nc1ccc2nn(-c3ccc(Cl)cc3)nc2c1)C1CCOCC1	log10 of IC50	0.53
O=C(Nc1ccc2nn(-c3ccc(Cl)cc3)nc2c1)C1CCOC1 (centres unmarked)	log10 of IC50	0.68
O=C(Nc1ccc2nn(-c3ccc(Cl)cc3)nc2c1)C1COCCO1 (centres unmarked)	log10 of IC50	0.57
CN(C)C(=S)Nc1ccc2nn(-c3ccc(Cl)cc3)nc2c1	log10 of IC50	-0.10
CCN(CC)c1ccc2nn(-c3ccc(Cl)cc3)nc2c1	log10 of IC50	0.26
Cc1nc(Nc2ccc3nn(-c4ccc(Cl)cc4)nc3c2)sc1C	log10 of IC50	0.43
CN(C)c1ccc2nn(-c3ccc(Cl)cc3)nc2c1	log10 of IC50	0.60

====

Tested on: HBsAg
Assay: PHH natural infection assay, HBsAg (alphalisa)
Type: cell-based, HBV
Conditions: Hepatitis B virus, Hepatocyte, 72 h, read-out: HBsAg IC50
pIC50: −log10 of the molar value.
Measured pIC50 of individual entries
experimental-readout: pIC50

compound	numeric-result
COCCNc1ccc2nn(-c3cccc(OC)c3)nc2c1 [Example 17]	5.09
COCCNc1ccc2nn(-c3cccc(Cl)c3)nc2c1 [Example 18]	5.35
COc1ccc(-n2nc3ccc(N)cc3n2)cc1 [Example 3, 2-(4-Methoxyphenyl)benzotriazol-5-amine]	5.82
O=C(Nc1ccc2nn(-c3ccc(F)cc3)nc2c1)C1CCOCC1 [Example 41]	5.66
CC(C)CS(=O)(=O)c1ccc(-n2nc3ccc(N)cc3n2)cc1 [Example 10]	5.02
CC(=O)Nc1ccc2nn(-c3ccc(Cl)cc3)nc2c1 [Example 38]	5.44
FC(F)(F)CNc1ccc2nn(-c3ccc(Cl)cc3)nc2c1 [Example 28]	5.67
Cc1cc(N)cc2nn(-c3ccc(Cl)cc3)nc12 [Example 11]	5.58
COCCN(C)c1ccc2nn(-c3ccc(Cl)cc3)nc2c1 [Example 35]	5.70
CC(=O)NC(=S)Nc1ccc2nn(-c3ccc(Cl)cc3)nc2c1 [Example 55]	5.53
CCS(=O)(=O)c1ccc(-n2nc3ccc(N)cc3n2)cc1 [Example 8]	5.20
CCCNc1ccc2nn(-c3ccc(Cl)cc3)nc2c1 [Example 14]	5.53
Nc1ccc2nn(-c3cccc(F)c3)nc2c1 [Example 5, 2-(3-Fluorophenyl)benzotriazol-5-amine]	5.45

Values from patent US20230286927A1
